Overview of reported pIC50 across a group of compounds:
Target: cloned human NR1/NR2B ion channels (Homo sapiens (Human), UniProt Q05586+Q13224)
Sequence (Q13224 27-1484, other chains not shown): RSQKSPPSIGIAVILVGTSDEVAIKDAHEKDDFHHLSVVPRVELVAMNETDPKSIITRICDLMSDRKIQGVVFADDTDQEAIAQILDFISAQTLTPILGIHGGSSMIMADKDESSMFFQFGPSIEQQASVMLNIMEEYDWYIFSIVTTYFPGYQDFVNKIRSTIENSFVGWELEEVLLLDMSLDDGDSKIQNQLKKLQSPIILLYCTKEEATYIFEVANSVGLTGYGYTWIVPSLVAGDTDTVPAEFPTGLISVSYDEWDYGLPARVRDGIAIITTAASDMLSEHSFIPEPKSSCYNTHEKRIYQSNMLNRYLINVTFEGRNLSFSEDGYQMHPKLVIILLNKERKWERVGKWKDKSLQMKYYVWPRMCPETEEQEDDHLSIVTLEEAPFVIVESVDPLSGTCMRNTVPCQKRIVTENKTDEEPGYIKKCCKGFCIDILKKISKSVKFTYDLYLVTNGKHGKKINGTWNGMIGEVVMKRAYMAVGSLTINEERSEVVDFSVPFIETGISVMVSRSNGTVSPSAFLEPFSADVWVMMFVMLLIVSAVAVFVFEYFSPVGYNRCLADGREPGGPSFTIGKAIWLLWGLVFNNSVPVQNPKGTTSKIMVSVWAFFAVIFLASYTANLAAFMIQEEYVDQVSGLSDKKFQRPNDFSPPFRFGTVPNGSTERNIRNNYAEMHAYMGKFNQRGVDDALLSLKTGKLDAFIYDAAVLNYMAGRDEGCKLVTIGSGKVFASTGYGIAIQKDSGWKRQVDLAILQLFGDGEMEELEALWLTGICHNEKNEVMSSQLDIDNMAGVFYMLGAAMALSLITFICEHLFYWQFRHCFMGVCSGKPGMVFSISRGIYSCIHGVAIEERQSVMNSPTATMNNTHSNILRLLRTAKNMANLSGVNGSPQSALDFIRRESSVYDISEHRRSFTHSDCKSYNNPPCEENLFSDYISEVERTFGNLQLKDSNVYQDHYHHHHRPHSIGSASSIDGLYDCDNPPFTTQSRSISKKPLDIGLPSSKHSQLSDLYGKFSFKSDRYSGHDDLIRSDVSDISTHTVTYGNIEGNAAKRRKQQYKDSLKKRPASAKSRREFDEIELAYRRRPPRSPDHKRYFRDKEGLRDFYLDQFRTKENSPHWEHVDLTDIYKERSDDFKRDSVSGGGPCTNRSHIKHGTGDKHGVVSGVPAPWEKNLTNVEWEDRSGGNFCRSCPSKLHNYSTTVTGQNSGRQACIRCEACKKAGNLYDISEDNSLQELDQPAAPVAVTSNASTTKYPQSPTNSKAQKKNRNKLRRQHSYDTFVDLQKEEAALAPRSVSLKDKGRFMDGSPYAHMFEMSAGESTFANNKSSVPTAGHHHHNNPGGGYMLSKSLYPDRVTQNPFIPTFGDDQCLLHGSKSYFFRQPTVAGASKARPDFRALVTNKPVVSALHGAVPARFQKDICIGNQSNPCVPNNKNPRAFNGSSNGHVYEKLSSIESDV
Test: HNR2BC: effects of test articles on cloned human NR1/NR2B ion channels expressed in mammalian cells (FLIPR calcium flux)
Assay type: cell-based
Settings: cloned human NR1/NR2B, Table 5
pIC50: −log10 of the molar value. Where a name gives a salt, the structure may show the parent alone.
MEASUREMENT_TYPE: pIC50

> print(dat)
                                    compound  readout.value
 1  O=C(Cn1cc(Cl)c2ncc(-c3ccc(F)cc3)cc21)N1CCOCC1           6.80
 2  Cc1cccc(-c2cnc3c(F)cn(CC(=O)C(C)C)c3c2)c1           6.30
 3  Fc1cnc(Cn2ccc3ncc(-c4ccc(F)c(F)c4)cc32)nc1           6.50
 4  Cc1cccc(-c2cnc3c(Br)cn(CC(=O)N4CCOCC4)c3c2)c1           7.00
 5  O=C(Cn1ccc2ncc(-c3cccc(C(F)(F)F)c3F)cc21)N1CC(F)C1 [Example 267, trifluoroacetate salt]           7.40
 6  COC1CN(C(=O)Cn2ccc3ncc(-c4ccc(F)c(C)c4)cc32)C1           6.20
 7  CCc1cccc(-c2cnc3c(F)cn(CC(=O)C(C)C)c3c2)c1           6.70
 8  O=C(Cn1ccc2ncc(-c3ccc(Cl)s3)cc21)N1CCCC1           6.20
 9     Fc1ccc(-c2cnc3ccn(Cc4cccnn4)c3c2)cc1F           6.90
10  Cc1cn(CC(=O)N2CCOCC2)c2cc(-c3ccc(F)cc3)cnc12           6.70
11  Cc1cccc(-c2cnc3c(Cl)cn(CC(=O)NC4CC4)c3c2)c1           7.30
12  Cc1ccccc1-c1cnc2ccn(CC(=O)N3CCC3)c2c1 [Example 162, trifluoroacetate salt]           7.00
13    Cc1cccc(-c2cnc3ccn(CC(=O)C4CC4)c3c2)c1           6.30
14   Cc1cc(-c2cnc3ccn(Cc4cnn(C)c4)c3c2)ccc1F           6.70
15  Cc1cc(-c2cnc3c(Br)cn(CC(=O)N4CCC4)c3c2)ccc1F           7.40
16  Cc1cc(-c2cnc3ccn(CC(=O)N4CC[C@@H](F)C4)c3c2)ccc1F [Example 201, trifluoroacetate salt]           5.40
17  O=C(Cn1ccc2ncc(-c3cc(F)cc(F)c3)cc21)N1CCC1           7.30
18  CCc1cccc(-c2cnc3ccn(CC(=O)C(C)(C)C)c3c2)c1           6.30
19  O=C(Cn1cc(Br)c2ncc(-c3ccc(F)cc3)cc21)N1CCCC1           7.50

###

Molecular target: cloned human NR1/NR2B ion channels (Homo sapiens (Human), UniProt Q05586+Q13224)
Assay: HNR2BC: effects of test articles on cloned human NR1/NR2B ion channels expressed in mammalian cells (FLIPR calcium flux)
Assay type: cell-based
Details: cloned human NR1/NR2B, Table 5
pIC50: −log10 of the molar value. Structures can show the parent of a compound that is named as a salt.
MEASUREMENT_TYPE: pIC50

> print(dat)
                                   compound  readout.value
1  Cc1csc(-c2cnc3ccn(CC(=O)NC4CC4)c3c2)c1 [Example 153, trifluoroacetate salt]           7.20
2  O=C(Cn1cc(F)c2ncc(-c3ccc(F)cc3)cc21)N1CCOCC1           7.10
3  CC1(O)CN(C(=O)Cn2ccc3ncc(-c4ccc(F)cc4)cc32)C1           6.90
4  Cc1cccc(-c2cnc3c(Br)cn(CC(=O)NC4CC4)c3c2)c1           7.40
5   CCc1cccc(-c2cnc3ccn(CC(=O)C(C)C)c3c2)c1           6.40
6  Cc1cccc(-c2cnc3ccn(CC(=O)N4CCC4)c3c2)c1 [Example 356, trifluoroacetate salt]           7.70
7  Cc1noc(Cn2cc(Cl)c3ncc(-c4ccc(F)c(C)c4)cc32)n1           6.80
8  CN(C)C(=O)Cn1cc(F)c2ncc(-c3ccc(Cl)s3)cc21           7.20

###

Biological target: cloned human NR1/NR2B ion channels (Homo sapiens (Human), UniProt Q05586+Q13224)
Assay: HNR2BC: effects of test articles on cloned human NR1/NR2B ion channels expressed in mammalian cells (FLIPR calcium flux)
Assay type: cell-based
Conditions: cloned human NR1/NR2B ion channels, Table 5
pIC50: −log10 of the molar value.
MEASUREMENT_TYPE: pIC50

> print(dat)
                                    compound  readout.value
 1  Cc1cn(CC(=O)N(C)C)c2cc(-c3ccccc3)cnc12 [Example 576]           7.00
 2  CN(C)C(=O)Cn1cc(F)c2ncc(-c3ccc(F)c(C(F)(F)F)c3)cc21 [Example 605]           7.20
 3  O=C(Cn1cc(F)c2ncc(-c3ccc(F)c(C(F)(F)F)c3)cc21)N1CC(F)C1 [Example 508]           6.90
 4  O=C(Cn1cc(F)c2ncc(-c3cccc(C(F)(F)F)c3)cc21)N1CC(F)C1 [Example 484]           7.90
 5  CN(C)C(=O)Cn1cc(Cl)c2ncc(-c3cccc(Cl)c3F)cc21 [Example 544]           7.50
 6  O=C(Cn1cc(Cl)c2ncc(-c3cc(F)cc(F)c3)cc21)N1CC(F)C1 [Example 537]           7.90
 7  Cc1cccc(-c2cnc3c(F)cn(CC(=O)N(C)C)c3c2)c1 [Example 496]           7.10
 8  O=C(Cn1cc(F)c2ncc(-c3cccc(F)c3)cc21)N1CCC1 [Example 506]           7.80
 9  Cc1ccc(-c2cnc3c(C)cn(CC(=O)N4CC(F)(F)C4)c3c2)s1 [Example 632]           6.70
10  CN(C)C(=O)Cn1cc(Cl)c2ncc(-c3ccc(F)c(Cl)c3)cc21 [Example 520]           7.10
11  Cc1cn(CC(=O)N2CCC2)c2cc(-c3cccc(C(F)(F)F)c3F)cnc12 [Example 585]           6.60
12  O=C(Cn1ccc2ncc(-c3cccs3)cc21)N1CCC1 [Example 399]           6.80
13  CN(C)C(=O)Cn1cc(Cl)c2ncc(-c3ccc(Cl)s3)cc21 [Example 423]           7.40
14  Cc1ncc(-c2cnc3ccn(CC(=O)N4CCC4)c3c2)s1 [Example 404]           7.50
15  O=C(Cn1ccc2ncc(-c3sccc3Cl)cc21)N1CCC1 [Example 403]           7.00
16  CN(C)C(=O)Cn1cc(F)c2ncc(-c3cccc(Cl)c3F)cc21 [Example 606]           7.20
17  Cc1cccc(-c2cnc3c(Cl)cn(CC(=O)N(C)C)c3c2)c1 [Example 515]           7.00
